- PROCEDURE_DETAILS: Rat 14-day pilot repeat-dose intraperitoneal toxicity study
- Type: in vivo
- TEST_SETTINGS: male, Sprague-Dawley, rat, plasma, ip; Day 14, 5 mg/kg/day, males; read-out: plasma C max
MEASURED_METRIC: Cmax (ng/mL)
Numeric only. Scale: ng/mL

Determine from records and report Cmax for COc1cc([C@@H]2COc3c(ccc(O)c3C)[C@@H]2c2ccc(O)cc2)cc(OC)c1O [TRX-E-002-1]
909

---

- PROCEDURE_DETAILS: Rat GLP 28-day repeat-dose intraperitoneal toxicity study
- Assay type: in vivo, SD rats
- TEST_SETTINGS: both sexes, Sprague-Dawley, rat, plasma, ip, Day 28; read-out: estimated plasma elimination half-life
MEASURED_METRIC: half-life

Determine from records and report half-life for COc1cc([C@@H]2COc3c(ccc(O)c3C)[C@@H]2c2ccc(O)cc2)cc(OC)c1O [TRX-E-002-1]
0.9 to 2.3 h
